# test_description: physchem
# run_conditions: pH 6.5, Solubility Conc.
Positions of bridges follow the written chain, without caps; N, C: chain ends. Non-standard residues stand in square brackets, D forms with d. Residues, ends and D or L forms follow the SMILES beside them. Groups on a side chain read outwards from the residue. *: point of attachment. Lys(CH2CO2H)2 = N[C@@H](CCCCN(CC(=O)O)CC(=O)O)C(=O)O; C17 diacid = O=C(O)CCCCCCCCCCCCCCCC(=O)*; AEEA = NCCOCCOCC(=O)O
recorded_metric: solubility (µM)
Respond with the bare value in µM.

Input: Respond only with solubility recorded for CC(=O)N[C@H]1CCCCNC(=O)C[C@@H](C(=O)N2CCC[C@H]2C(=O)N2CCC[C@H]2C(=O)N[C@@H](Cc2c[nH]cn2)C(=O)N[C@@H](CCC(=O)O)C(=O)N[C@@H](CCCCN(CC(=O)O)CC(=O)O)C(=O)N[C@@H](CCCCNC(=O)COCCOCCNC(=O)CCCCCCCCCCCCCCCC(=O)O)C(N)=O)NC(=O)[C@H](Cc2c[nH]c3ccccc23)NC(=O)[C@H](CCCNC(=N)N)NC(=O)[C@@H](Cc2ccccc2)NC(=O)[C@H](Cc2c[nH]cn2)NC1=O [Example 44] (Ac-KH[dF]RWDPPHE[Lys(CH2CO2H)2]K([AEEA-C17 diacid])-NH2; lactam 1-6)
Output: 227

----------
# test_description: physchem
# run_conditions: pH 6.1, Solubility Conc.
Positions of bridges follow the written chain, without caps; N, C: chain ends. Non-standard residues stand in square brackets, D forms with d. Residues, ends and D or L forms follow the SMILES beside them. Groups on a side chain read outwards from the residue. *: point of attachment. Lys(CH2CO2H)2 = N[C@@H](CCCCN(CC(=O)O)CC(=O)O)C(=O)O; C16 diacid = O=C(O)CCCCCCCCCCCCCCC(=O)*; Orn = NCCC[C@H](N)C(=O)O; AEEA = NCCOCCOCC(=O)O
recorded_metric: solubility (µM)
Hi! Could you send only the number? It should be in µM, unit omitted.

Input: Return reported solubility. Input molecule: CC(=O)N[C@H]1CCC(=O)NCCC[C@@H](C(=O)N2CCC[C@H]2C(=O)N2CCC[C@H]2C(=O)N[C@@H](CC(=O)O)C(=O)N[C@@H](CCCCN(CC(=O)O)CC(=O)O)C(=O)N[C@@H](CCCCNC(=O)COCCOCCNC(=O)CCCCCCCCCCCCCCC(=O)O)C(N)=O)NC(=O)[C@H](Cc2c[nH]c3ccccc23)NC(=O)[C@H](CCCNC(=N)N)NC(=O)[C@@H](Cc2ccccc2)NC(=O)[C@H](Cc2c[nH]cn2)NC1=O [Example 13] (Ac-EH[dF]RW[Orn]PPD[Lys(CH2CO2H)2]K([AEEA-C16 diacid])-NH2; lactam 1-6)
Output: 473

----------
# test_description: physchem
# run_conditions: pH 5.1, Solubility Conc.
Positions of bridges follow the written chain, without caps; N, C: chain ends. Non-standard residues stand in square brackets, D forms with d. Residues, ends and D or L forms follow the SMILES beside them. Groups on a side chain read outwards from the residue. *: point of attachment. C16 diacid = O=C(O)CCCCCCCCCCCCCCC(=O)*; AEEA = NCCOCCOCC(=O)O
recorded_metric: solubility (µM)
Entry rule: numbers only, all in µM.

Input: Hello, please tell me recorded solubility for this one: CC(=O)N[C@H]1CSSC[C@@H](C(=O)N2CCC[C@H]2C(=O)N2CCC[C@H]2C(=O)N[C@@H](CCCCN)C(=O)N[C@@H](CCC(=O)O)C(=O)N[C@@H](CCC(=O)O)C(=O)N[C@@H](CCCCNC(=O)COCCOCCNC(=O)CCCCCCCCCCCCCCC(=O)O)C(N)=O)NC(=O)CNC(=O)[C@H](Cc2c[nH]c3ccccc23)NC(=O)[C@H](CCCNC(=N)N)NC(=O)[C@@H](Cc2ccccc2)NC(=O)[C@H](Cc2c[nH]cn2)NC(=O)[C@H](CCC(=O)O)NC1=O [Example 68] (Ac-CEH[dF]RWGCPPKEEK([AEEA-C16 diacid])-NH2; disulfide 1-8)
Output: 87
